Source of measurements: patent US20240083958A1

Reported Shift (averaged) is given for each of the following binders.
# Tested System: human β2AR (human, UniProt P07550 2-365)
# Test Protocol: cell-based or functional assay
Bridge positions count the residues as written; N and C are the ends. Square brackets hold non-standard residues; d marks the D form. Primed or numbered codes have the meaning given here. Azk = residue with azidated side chain, clicked to Pra; Pra′ = residue with alkynyl side chain, clicked to Azk; Lys(N3) = [N-]=[N+]=NCCCC[C@H](N)C(=O)O; 1Nal = N[C@@H](Cc1cccc2ccccc12)C(=O)O; Pra = C#CC[C@H](N)C(=O)O
# respond with the number and nothing more

Example results:
1. Ac-KKKFN[Pra]CRD[Lys(N3)]IQRMHLRQ[1Nal]ELL-OH (triazole 6-10) [compound 57]; 49
2. Ac-KFN[Pra′]CRD[Azk]IQRMHLRQYELI-OH (triazole 4-8) [compound 46]; 51

Shift focus to the following entry.
Recorded result, Ac-KFN[Pra′]CRD[Azk]IQRMHLRQYELL-OH (triazole 4-8) [compound 41] , Shift (averaged): 51
